- system-tested: antibody antigen (CD47) coated in the ELISA of Example 3 (UniProt Q08722)
- Sequence (Q08722 19-139 limits assumed): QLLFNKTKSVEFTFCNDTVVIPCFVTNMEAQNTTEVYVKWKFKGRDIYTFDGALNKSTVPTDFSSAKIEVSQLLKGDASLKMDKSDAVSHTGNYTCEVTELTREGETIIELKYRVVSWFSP
- experiment-summary: ELISA on coated antigen, ratio against wild-type 70H1
// values below are reported Mutant Binding Strength (EC50 post-mutation / EC50 wild-type)
The response must contain the number and no unit.

Check out these entries, answers already filled in.
binder	measured
70H1 mutant VL-93 Y to C (antibody, V domains shown) VH: QQQLEESGGGLVKPEGSLTLTCTASGFSFSSGYDMCWVRQAPGRGLEWIACIYTRSSGGTYYASWAKGRFTISKTSSTVDLRMTSLTAADTATYFCAGGRSSYRLNLWGQGALVTVSS VL: DVVMTQTPSPVEAAVGGTVTIKCQASQSISNELSWYQQKPGQPPKLLIYRASTLESGVSSRFKGSGSGTEFTLTISDLECADAATYYCQSTFCGDYGNAFGGGTEVVVK	1
70H1 mutant VL-96 Y to C (antibody, V domains shown) VH: QQQLEESGGGLVKPEGSLTLTCTASGFSFSSGYDMCWVRQAPGRGLEWIACIYTRSSGGTYYASWAKGRFTISKTSSTVDLRMTSLTAADTATYFCAGGRSSYRLNLWGQGALVTVSS VL: DVVMTQTPSPVEAAVGGTVTIKCQASQSISNELSWYQQKPGQPPKLLIYRASTLESGVSSRFKGSGSGTEFTLTISDLECADAATYYCQSTFYGDCGNAFGGGTEVVVK	1

# Mutant Binding Strength (EC50 post-mutation / EC50 wild-type) of 70H1 mutant VL-98 N to C (antibody, V domains shown) VH: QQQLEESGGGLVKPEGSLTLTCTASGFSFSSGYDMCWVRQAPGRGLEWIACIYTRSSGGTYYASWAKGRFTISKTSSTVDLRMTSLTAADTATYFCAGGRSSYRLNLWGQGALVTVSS VL: DVVMTQTPSPVEAAVGGTVTIKCQASQSISNELSWYQQKPGQPPKLLIYRASTLESGVSSRFKGSGSGTEFTLTISDLECADAATYYCQSTFYGDYGCAFGGGTEVVVK = 1
